Value source: patent US9006225B2

- protocol.summary: Coloring of solutions of the compound of Preparation Example 7 with additives after storage (Experimental Example 5)
- Type: physicochemical
- Set-up: key: −: No coloring; +: Coloring; ++: Marked coloring
- test.conditions: 10 mg compound of Preparation Example 7 in methanol 2 mL + 1 mL of 10 mg/mL aqueous solution of the additive
readout.kind: Degree of coloring, Sample solution after storage at 60° C. for 6 days

| compound | observed |
| --- | --- |
| OC[C@H]1O[C@@H](O[C@H]2[C@H](O)[C@@H](O)C(O)O[C@@H]2CO)[C@H](O)[C@@H](O)[C@H]1O (some centres unmarked) | + |
| OC[C@@H](O)[C@@H](O)CO | − |
| OC[C@H]1O[C@H](O[C@H]2[C@H](O)[C@@H](O)[C@H](O)O[C@@H]2CO)[C@H](O)[C@@H](O)[C@@H]1O | + |
| O=C(CO)[C@@H](O)[C@H](O)[C@H](O)CO | + |
| OC[C@H]1O[C@H](O[C@H]2O[C@H](CO)[C@@H](O)[C@H](O)[C@H]2O)[C@H](O)[C@@H](O)[C@@H]1O | − |

Each compound below has a recorded value; state its Degree of coloring, Sample solution after storage at 60° C. for 6 days.
1. O=C[C@H](O)[C@@H](O)[C@H](O)CO
2. OC[C@H]1O[C@@](CO)(O[C@H]2O[C@H](CO)[C@@H](O)[C@H](O)[C@H]2O)[C@@H](O)[C@@H]1O
3. OC[C@@H](O)[C@@H](O)[C@H](O)[C@H](O)CO

[out]
["++", "−", "−"]

----------
- protocol.summary: Coloring of compound solutions with glucose after storage (Experimental Example 4)
- Format: physicochemical
- Design: key: −: No coloring; +: Coloring; ++: Marked coloring
- test.conditions: 10 mg compound in methanol 2 mL + 1 mL glucose aqueous solution 10 mg/mL
- Description: The compounds of Preparation Examples 2 to 5 and 7 were each weighed in an amount of 10 mg in a stoppered test tube, added with methanol (2 mL), dissolved in the methanol, and then further added with a glucose aqueous solution (1 mL) of 10 mg/mL concentration to prepare sample solutions. […]
readout.kind: Degree of coloring, Sample solution after storage at 60° C. for 6 days

| compound | observed |
| --- | --- |
| Nc1cc(CCC(=O)O)cc(-c2ccc3[nH]ccc3c2)c1OCC1CCCC1 [Compound of Preparation Example 3] | ++ |
| Cc1ccc(CCOc2c(N)cc(CCC(=O)O)cc2-c2ccc3ccccc3c2)cc1 [Compound of Preparation Example 2] | + |
| Nc1cc(CCC(=O)O)cc(-c2ccc3[nH]ncc3c2)c1OC1Cc2ccccc2C1 [Compound of Preparation Example 5] | + |
| Cn1ccc2cc(-c3cc(CCC(=O)O)cc(N)c3OCC3CCCC3)ccc21 [Compound of Preparation Example 4] | ++ |

Note to self: Degree of coloring, Sample solution after storage at 60° C. for 6 days recorded for Cn1ncc2cc(-c3cc(CCC(=O)O)cc(N)c3OC3Cc4ccccc4C3)ccc21 [Compound of Preparation Example 7] was ++
